Hi there, I'd appreciate the recorded MIC for every entry that follows.
- System: M. marinum CAMP 5644 (MM)
- Protocol Text: in vitro antimycobacterial MIC, broth dilution micromethod in Middlebrook 7H9
- Assay type: cell-based, Mycobacterium marinum
- Run Parameters: Mycobacterium marinum, 504 h; 21-day cultivation, 28 °C; read-out: MIC MM 21-d
Hi! Could you send only the number? It should be in µM, unit omitted.

Sure, the documented MIC for CCCCCCOc1ccccc1NC(=O)OC(CN(CCC)CCC)CN1CCCC1 (stereo not shown) [1c] is 25.5

Sure, the documented MIC for CCCCCCOc1ccccc1NC(=O)OC(CN(CCC)CCC)CN1CCCCCC1 (stereo not shown) [1k] is 98

Sure, the documented MIC for NNC(=O)c1ccncc1 [INH, isoniazid, reference compound] is 467

Sure, the documented MIC for O=C(O)c1cn(C2CC2)c2cc(N3CCNCC3)c(F)cc2c1=O [CPX, ciprofloxacin, reference compound] is 0.8

Sure, the documented MIC for CCCCOc1cccc(NC(=O)OC(CN(CCC)CCC)CN2CCCC2)c1 (stereo not shown) [1e] is 32.5

Sure, the documented MIC for CCCCCOc1ccccc1NC(=O)OC(CN(CCC)CCC)CN1CCCC1 (stereo not shown) [1b] is 52

Sure, the documented MIC for CCCCOc1ccccc1NC(=O)OC(CN(CCC)CCC)CN1CCCC1 (stereo not shown) [1a] is 106

Sure, the documented MIC for CCCCCCCOc1cccc(NC(=O)OC(CN(CCC)CCC)CN2CCCCCC2)c1.O=C(O)C(=O)O (stereo not shown) [1l] is 191

Sure, the documented MIC for CCCCOc1ccccc1NC(=O)OC(CN(CCC)CCC)CN1CCCCCC1 (stereo not shown) [1i] is 51

---

- Protocol Text: lipophilicity by isocratic RP-HPLC (log k, k, log kw, S)
- Format: physicochemical
- Run Parameters: mobile phase pure MeOH
# true = k (retention factor) below 0.9 (exclusive); false = k (retention factor) at/above 0.9

**Q:** Hello, I'm reviewing records and need to know if k (retention factor) of CCCCCCCOc1cccc(NC(=O)OC(CN(CCC)CCC)CN2CCCCCC2)c1.O=C(O)C(=O)O (centres unmarked) is below 0.9. Could you check?
**A:** false

**Q:** Hello, I'm reviewing records and need to know if k (retention factor) of CCCCCCCOc1cccc(NC(=O)OC(CN(CCC)CCC)CN2CCCCCC2)c1.Cl.Cl (centres unmarked) is below 0.9. Could you check?
**A:** true

**Q:** Hello, I'm reviewing records and need to know if k (retention factor) of CCCCCCOc1cccc(NC(=O)OC(CN(CCC)CCC)CN2CCCCCC2)c1.Cl.Cl (centres unmarked) is below 0.9. Could you check?
**A:** true

**Q:** Hello, I'm reviewing records and need to know if k (retention factor) of CCCCCCOc1cccc(NC(=O)OC(CN(CCC)CCC)CN2CCCC2)c1 (centres unmarked) is below 0.9. Could you check?
**A:** true

**Q:** Hello, I'm reviewing records and need to know if k (retention factor) of CCCCCOc1cccc(NC(=O)OC(CN(CCC)CCC)CN2CCCC2)c1.Cl.Cl (centres unmarked) is below 0.9. Could you check?
**A:** true

**Q:** Hello, I'm reviewing records and need to know if k (retention factor) of CCCCOc1cccc(NC(=O)OC(CN(CCC)CCC)CN2CCCCCC2)c1 (centres unmarked) is below 0.9. Could you check?
**A:** true

**Q:** Hello, I'm reviewing records and need to know if k (retention factor) of CCCCCOc1cccc(NC(=O)OC(CN(CCC)CCC)CN2CCCCCC2)c1.Cl.Cl (centres unmarked) is below 0.9. Could you check?
**A:** true

**Q:** Hello, I'm reviewing records and need to know if k (retention factor) of CCCCOc1cccc(NC(=O)OC(CN(CCC)CCC)CN2CCCC2)c1 (centres unmarked) is below 0.9. Could you check?
**A:** true

**Q:** Hello, I'm reviewing records and need to know if k (retention factor) of CCCCCOc1ccccc1NC(=O)OC(CN(CCC)CCC)CN1CCCC1 (centres unmarked) is below 0.9. Could you check?
**A:** false

**Q:** Hello, I'm reviewing records and need to know if k (retention factor) of CCCCCCOc1ccccc1NC(=O)OC(CN(CCC)CCC)CN1CCCC1 (centres unmarked) is below 0.9. Could you check?
**A:** false
